# Test system: CCRIS mutagenicity, Ames/micronucleus/aberration tests
# procedure-summary: CCRIS mutagenicity studies
# test-conditions: Test System: AMES SALMONELLA TYPHIMURIUM; Strain/Indicator: TA1535; Metabolic Activation: S-9; Method: STANDARD PLATE
Active and inactive are the calls of the source. How the calls were made is not given here.
Choose the fitting class; nothing outside active, inactive is accepted.

Ask: How was "O=C(O)[C@@H]1CS[C@H](c2ccccc2O)N1C(=O)CCS" classified in this test?
Reply: inactive

Ask: How was "c1ccc2sncc2c1" classified in this test?
Reply: inactive

Ask: How was "Cc1ccc2nsc(N)c2c1" classified in this test?
Reply: inactive

Ask: How was "CC1=C(C(=O)Nc2ccccc2)SCCO1" classified in this test?
Reply: inactive

Ask: How was "CCc1cccc(CC)c1N(COC)C(=O)CCl" classified in this test?
Reply: inactive

Ask: How was "CCCCOC(=O)c1ccccc1C(=O)OCCCC" classified in this test?
Reply: inactive

Ask: How was "CCSCCSP(=O)(OC)OC" classified in this test?
Reply: inactive

Ask: How was "CCCN(C(=O)CCCl)c1snc2ccccc12" classified in this test?
Reply: active

Ask: How was "CN(C(=O)CCCCl)c1snc2ccccc12" classified in this test?
Reply: inactive

Ask: How was "Nc1snc2ccc(Cl)cc12" classified in this test?
Reply: inactive

Ask: How was CC(C)NCC(O)COc1cccc2c1OCC(O)C2 (configuration not stated) classified in this test?
Reply: inactive

Ask: How was "CCCNc1snc2ccccc12" classified in this test?
Reply: inactive
